Tested on: MDR1
Assay: MDCK-MDR1 permeability assay (BBB penetration potential)
Format: in vitro ADME
Conditions: dog, MDCK-MDR1, pH 7.4, MDCK-MDR1: Papp A-B
Experimental: Each determination is performed in duplicate. […] Analytical conditions are outlined below.
I'd be grateful if you could share measured Papp A→B at 120 min, 5 μM for these entries.
Give bare numbers, in ×10⁻⁶ cm/s.

The following compounds have reported results that may help.
{"columns": ["compound", "measured_number"],
 "data": [
  ["N#Cc1ccc(-c2ccc(O[C@H]3C[C@@H]4CC[C@@H](N4)[C@H]3F)nn2)c(O)c1 (single isomer, unassigned)", 14.4],
  ["Oc1cc(-c2ccnnc2)ccc1-c1ccc(O[C@H]2C[C@@H]3CCC[C@@H](N3)[C@H]2F)nn1 (single isomer, unassigned)", 3.9],
  ["Cn1cc(-c2ccc(-c3ccc(O[C@H]4C[C@@H]5COC[C@@H](N5)[C@H]4F)nn3)c(O)c2)cn1 (single isomer, unassigned)", 16.9],
  ["C[C@]12CCC[C@](C)(N1)[C@H](F)[C@H](Oc1ccc(-c3ccc(C#N)cc3O)nn1)C2 (single isomer, unassigned)", 9.39],
  ["Cn1c(=O)oc2cc(-c3ccc(O[C@@H]4C[C@H]5CCC[C@H](N5)[C@@H]4F)nn3)c(O)cc21 (single isomer, unassigned)", 5.6]
]}

List the reported Papp A→B at 120 min, 5 μM of each compound below.
1. Cc1ccc(-c2ccc(-c3ccc(O[C@@H]4C[C@H]5CCC[C@H](N5)[C@@H]4F)nn3)c(O)c2)nn1 (single isomer, unassigned)
2. Cn1ccc2cc(O)c(-c3ccc(O[C@H]4C[C@@H]5CCC[C@@H](N5)[C@H]4F)nn3)cc2c1=O (single isomer, unassigned)
3. Cn1ccc2cc(-c3ccc(O[C@H]4C[C@@H]5CC[C@@H](N5)[C@H]4F)nn3)c(O)cc2c1=O (single isomer, unassigned)
4. Cc1cc(-c2ccc(-c3ccc(O[C@H]4C[C@@H]5CCC[C@@H](N5)[C@H]4F)nn3)c(O)c2)co1 (single isomer, unassigned)
5. Cn1ccc(-c2ccc(-c3ccc(O[C@@H]4C[C@H]5CCC[C@H](N5)[C@@H]4F)nn3)c(O)c2)cc1=O (single isomer, unassigned)
6. Oc1cc(-c2nncs2)ccc1-c1ccc(O[C@@H]2C[C@H]3CCC[C@H](N3)[C@@H]2F)nn1 (single isomer, unassigned)
7. Cn1cc(-c2ccc(-c3ccc(O[C@H]4C[C@H]5CCC[C@H](N5)[C@@H]4F)nn3)c(O)c2)cn1 (single isomer, unassigned)

OUT:
1. 3.66
2. 5.27
3. 3.5
4. 1.07
5. 1.1
6. 7.76
7. 11

---

tested on: MDR1; assay: MDCK-MDR1 permeability assay (BBB penetration potential); type: in vitro ADME; conditions: dog, MDCK-MDR1, pH 7.4, MDCK-MDR1: Efflux
quantity_kind: efflux ratio at 120 min, 5 μM
One number for each entry.

Some solved entries appear below for comparison.
{"columns": ["compound", "test_target", "efflux ratio at 120 min, 5 μM"],
 "data": [
  ["Oc1cc(-c2nnco2)c(F)cc1-c1ccc(O[C@@H]2C[C@H]3CCC[C@H](N3)[C@@H]2F)nn1 (single isomer, unassigned)", "MDR1", 8],
  ["C[C@]12CC[C@](C)(N1)[C@H](F)[C@H](Oc1ccc(-c3ccc(-n4cccn4)cc3O)nn1)C2 (single isomer, unassigned)", "MDR1", 5],
  ["Oc1cc(-c2ccccn2)ccc1-c1ccc(O[C@H]2C[C@@H]3CCC[C@@H](N3)[C@H]2F)nn1 (single isomer, unassigned)", "MDR1", 5],
  ["Cn1cnc(-c2ccc(-c3ccc(O[C@@H]4C[C@H]5CCC[C@H](N5)[C@@H]4F)nn3)c(O)c2)cc1=O (single isomer, unassigned)", "MDR1", 47]
]}

For the 2 compounds below, give their efflux ratio at 120 min, 5 μM values.
1. Oc1cc2ccncc2cc1-c1ccc(O[C@H]2C[C@@H]3CCC[C@@H](N3)[C@H]2F)nn1 (single isomer, unassigned)
2. Cn1ccc2cc(O)c(-c3ccc(O[C@@H]4C[C@@]5(C)CC[C@](C)(N5)[C@@H]4F)nn3)cc2c1=O (single isomer, unassigned)

OUT:
1. 3
2. 5
